Origin of measurements: PubChem BioAssay AID1220

- measured-target: Mannose-6-phosphate isomerase (Homo sapiens)
- assay-text: MPI inhibition at elevated mannose 6-phosphate – biochemical, fluorescence intensity, high mannose 6-phosphate, primary screen (AID 1220)
- run-parameters: recombinant PMI enzyme, coupled fluorescence intensity; at 20 µM
Screen size: about 190,000 compounds; about 1,300 (0.68%) were called active. Cut-off read from the data, not from the text of the source: active = inhibition above about 50%; inactive = the rest. The entries come from a sample that favours actives as a whole.
Hi! Could you answer with just one of these? YES (active), NO (inactive)

COc1ccc(N2CSC3=C(C#N)C(c4ccc(OC)c(OC)c4)CC(=O)N3C2)c(OC)c1 (stereo not drawn) ... NO
CC1CCCC(C)N1C(=O)CSc1nc2ccccc2s1 (stereo not drawn) ... NO
Cc1cccc(-c2n[nH]c(=S)n2C)c1 ... NO

Read the next record carefully.
Q) Call for entry Cc1cc(-c2[nH]nc3c2C(c2ccc(Cl)cc2)C(C#N)=C(N)O3)c(C)s1 (stereo not drawn) :
A) NO

----------
What inhibition was measured for each of the following?
- measured-target: Mannose-6-phosphate isomerase (Homo sapiens) (UniProt P34949)
- Sequence (P34949 whole entry, looked up): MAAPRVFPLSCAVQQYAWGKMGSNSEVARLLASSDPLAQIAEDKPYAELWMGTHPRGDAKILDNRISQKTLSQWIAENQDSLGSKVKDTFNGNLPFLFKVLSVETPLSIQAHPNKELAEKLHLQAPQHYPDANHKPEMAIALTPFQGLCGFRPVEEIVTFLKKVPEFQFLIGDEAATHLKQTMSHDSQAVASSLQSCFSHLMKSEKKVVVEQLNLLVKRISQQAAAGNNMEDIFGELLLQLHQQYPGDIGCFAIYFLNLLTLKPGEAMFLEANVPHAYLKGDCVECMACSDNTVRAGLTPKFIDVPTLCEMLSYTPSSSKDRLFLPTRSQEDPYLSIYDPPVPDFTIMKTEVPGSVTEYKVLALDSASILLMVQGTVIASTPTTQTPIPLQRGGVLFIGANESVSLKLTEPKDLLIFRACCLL
- assay-text: MPI inhibition at elevated mannose 6-phosphate – biochemical, fluorescence intensity, high mannose 6-phosphate, primary screen (AID 1220)
- run-parameters: recombinant PMI enzyme, coupled fluorescence intensity; at 20 µM; stronger effect = higher value
Screen size: about 190,000 compounds; about 1,300 (0.68%) were called active. Shown is part of a subset that was picked to be rich in actives.

Consider the following illustrative entries.
CCOc1cc(NC(=S)NCC2CCCO2)c(OCC)cc1NC(=O)c1cccc(F)c1 (stereo unspecified) ... 53.7% (active)
CC(C)=CCCC1=CCC(/C=N/NC(N)=O)C(C)C1 (stereo unspecified) ... -36.5% (inactive)
Cc1oc(/N=C/c2c(O)ccc3ccccc23)c(C#N)c1C ... 53.7% (active)
Cc1cc(NC(=O)CCC(=O)N(CC(=O)NCC2CCCO2)Cc2ccc(F)cc2)no1 (stereo unspecified) ... -6.3% (inactive)
O=C(c1cnn(-c2ccccc2)c1)c1ccccc1O ... 10.1% (inactive)
CCOc1cc(NC(=S)NCC2CCCO2)c(OCC)cc1NC(=O)c1ccc(OC)cc1 (stereo unspecified) ... 35% (inactive)
O=C(Nc1cccn2ncnc12)C(F)(F)F ... -1.2% (inactive)
O=C(Nc1cccc(N=Cc2cc(Br)cc(Br)c2O)c1)c1ccco1 ... 53.4% (active)
CC(C)c1ccc(OCC(=O)NCCO)cc1 ... 55.1% (active)
CN(C)c1ccc2c(O)cc(=O)n(C)c2c1 ... 56.1% (active)

Parameters: items (list). Returns: inhibition for each item.
1. COc1ccc2c(c1)CC/C(=C\c1ccc(OC)c(Cn3cccn3)c1)C2=O
2. O=C(O)c1ccc(COc2ccc3ccccc3c2/C=C2/NC(=O)N(Cc3ccc(F)cc3)C2=O)cc1
3. CCOC(=O)c1cc2c(ccn2C)n1Cc1ccccc1C
4. c1ccc(COc2cccc(CNCc3ccccn3)c2)cc1

A)
21.7% (inactive)
52.7% (active)
22.3% (inactive)
-10.4% (inactive)

Parameters: items (list). Returns: inhibition for each item.
1. O=[N+]([O-])c1cc(C(F)(F)F)ccc1NCCOc1ccccc1
2. CCOc1cc(NC(=S)NCC2CCCO2)c(OCC)cc1NC(=O)c1ccccc1F (stereo unspecified)
3. O=[N+]([O-])c1ccc2nc(NCCCO)nc(-c3ccccc3)c2c1

A)
["9% (inactive)", "53.9% (active)", "-39.7% (inactive)"]

Parameters: items (list). Returns: inhibition for each item.
1. CCOc1cc(NC(=S)NCC2CCCO2)c(OCC)cc1NC(=O)c1ccc(F)cc1 (stereo unspecified)
2. CC(C)NC(=O)COc1ccccc1C#N
3. CCOC(=O)c1cc2c(ccn2C)n1Cc1ccc(C#N)cc1
4. CCOc1cc(NC(=S)NCC2CCCO2)c(OCC)cc1NC(=O)CC(C)C (stereo unspecified)

A)
["54.9% (active)", "-4.6% (inactive)", "35.1% (inactive)", "15.4% (inactive)"]
